Experiment: Fraction unbound in rat plasma
Type: ADME, cell-free
Recorded metric: fraction unbound

>  <Compound structure>
O=c1c2cccnc2ncn1Cc1noc(CCc2ccc(Cl)cc2)n1

>  <Result>
0.093

$$$$

(P) O=c1c2cccnc2ncn1Cc1nc(CCc2ccc(Cl)cc2)no1
(Q) C/C(=C\c1nc(Cn2cnc3ncccc3c2=O)no1)c1ccc(Cl)cc1
## Task Just tell me: smaller fraction unbound value, P or Q ? Write down the label attached to your selection.
## Result Q

(P) C/C(=C\c1noc(Cn2cnc3ncn(C)c3c2=O)n1)c1ccc(Cl)cc1
(Q) Cn1cnc2ncn(Cc3nc(CCc4ccc(Cl)cc4)no3)c(=O)c21
## Task Select the item with the higher value of fraction unbound from the options P and Q listed. Write down the label attached to your selection.
## Result Q
(Q: 0.289, P: 0.033)

---

Molecular target: Transient receptor potential cation channel subfamily V member 1 (Homo sapiens)
Sequence (Q8NER1 whole entry): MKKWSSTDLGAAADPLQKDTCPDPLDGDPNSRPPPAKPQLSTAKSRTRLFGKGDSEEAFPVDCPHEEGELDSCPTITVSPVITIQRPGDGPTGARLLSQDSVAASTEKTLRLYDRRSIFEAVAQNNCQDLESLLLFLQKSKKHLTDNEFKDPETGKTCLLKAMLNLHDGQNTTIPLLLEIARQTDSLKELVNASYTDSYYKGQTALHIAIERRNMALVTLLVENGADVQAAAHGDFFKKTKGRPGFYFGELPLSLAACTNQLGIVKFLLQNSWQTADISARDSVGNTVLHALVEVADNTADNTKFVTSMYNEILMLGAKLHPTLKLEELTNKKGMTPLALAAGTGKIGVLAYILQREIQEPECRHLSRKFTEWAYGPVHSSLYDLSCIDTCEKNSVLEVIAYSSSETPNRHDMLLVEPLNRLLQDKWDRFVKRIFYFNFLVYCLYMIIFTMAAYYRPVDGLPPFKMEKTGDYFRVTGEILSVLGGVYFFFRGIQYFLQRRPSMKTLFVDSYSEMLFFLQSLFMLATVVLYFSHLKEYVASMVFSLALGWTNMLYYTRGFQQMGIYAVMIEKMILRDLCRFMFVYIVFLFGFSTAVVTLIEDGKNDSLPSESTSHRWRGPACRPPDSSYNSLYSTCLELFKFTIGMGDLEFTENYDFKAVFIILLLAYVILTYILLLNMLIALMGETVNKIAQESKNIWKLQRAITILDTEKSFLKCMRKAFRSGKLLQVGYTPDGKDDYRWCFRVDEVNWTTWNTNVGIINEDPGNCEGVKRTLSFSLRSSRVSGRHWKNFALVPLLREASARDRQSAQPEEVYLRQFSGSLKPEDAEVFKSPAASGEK
Test: Antagonist activity at human TRPV1 expressed in CHO cells assessed as inhibition of capsaicin-induced Ca2+ influx preincubated for 2.5 mins followed by capsaicin addition measured for 1 min by luminescence assay
pIC50: −log10 of the molar value.
Recorded metric: pIC50

## Task Requested field: pIC50. Item: `Cc1cccc2c(=O)n(CC(=O)NCCc3ccc(OC(F)F)cc3)cnc12`
## Result < 4.70

---

Target: Cytochrome P450 2D6 (Homo sapiens, UniProt P10635)
Sequence (P10635 whole entry): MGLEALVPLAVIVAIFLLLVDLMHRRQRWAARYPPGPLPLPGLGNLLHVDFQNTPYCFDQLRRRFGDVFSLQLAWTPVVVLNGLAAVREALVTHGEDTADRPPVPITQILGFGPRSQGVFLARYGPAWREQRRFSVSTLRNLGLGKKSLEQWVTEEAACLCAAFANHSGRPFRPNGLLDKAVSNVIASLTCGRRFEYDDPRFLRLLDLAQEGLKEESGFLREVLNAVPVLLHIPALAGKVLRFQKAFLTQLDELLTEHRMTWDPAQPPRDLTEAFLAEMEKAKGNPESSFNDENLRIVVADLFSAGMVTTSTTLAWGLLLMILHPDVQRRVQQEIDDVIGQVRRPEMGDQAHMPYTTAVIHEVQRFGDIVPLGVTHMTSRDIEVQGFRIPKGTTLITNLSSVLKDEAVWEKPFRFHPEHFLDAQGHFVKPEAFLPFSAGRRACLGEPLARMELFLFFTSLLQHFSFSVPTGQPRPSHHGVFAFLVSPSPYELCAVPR
Recorded metric: IC50

## Task Query the reported IC50 for Cytochrome P450 2D6 (Homo sapiens, UniProt P10635); item: `Cn1cnc2ncn(Cc3nc(CCc4ccc(Cl)cc4)no3)c(=O)c21`
## Result > 27 µM

---

Target: Transient receptor potential cation channel subfamily A member 1 (Homo sapiens, UniProt O75762)
Sequence (O75762 whole entry): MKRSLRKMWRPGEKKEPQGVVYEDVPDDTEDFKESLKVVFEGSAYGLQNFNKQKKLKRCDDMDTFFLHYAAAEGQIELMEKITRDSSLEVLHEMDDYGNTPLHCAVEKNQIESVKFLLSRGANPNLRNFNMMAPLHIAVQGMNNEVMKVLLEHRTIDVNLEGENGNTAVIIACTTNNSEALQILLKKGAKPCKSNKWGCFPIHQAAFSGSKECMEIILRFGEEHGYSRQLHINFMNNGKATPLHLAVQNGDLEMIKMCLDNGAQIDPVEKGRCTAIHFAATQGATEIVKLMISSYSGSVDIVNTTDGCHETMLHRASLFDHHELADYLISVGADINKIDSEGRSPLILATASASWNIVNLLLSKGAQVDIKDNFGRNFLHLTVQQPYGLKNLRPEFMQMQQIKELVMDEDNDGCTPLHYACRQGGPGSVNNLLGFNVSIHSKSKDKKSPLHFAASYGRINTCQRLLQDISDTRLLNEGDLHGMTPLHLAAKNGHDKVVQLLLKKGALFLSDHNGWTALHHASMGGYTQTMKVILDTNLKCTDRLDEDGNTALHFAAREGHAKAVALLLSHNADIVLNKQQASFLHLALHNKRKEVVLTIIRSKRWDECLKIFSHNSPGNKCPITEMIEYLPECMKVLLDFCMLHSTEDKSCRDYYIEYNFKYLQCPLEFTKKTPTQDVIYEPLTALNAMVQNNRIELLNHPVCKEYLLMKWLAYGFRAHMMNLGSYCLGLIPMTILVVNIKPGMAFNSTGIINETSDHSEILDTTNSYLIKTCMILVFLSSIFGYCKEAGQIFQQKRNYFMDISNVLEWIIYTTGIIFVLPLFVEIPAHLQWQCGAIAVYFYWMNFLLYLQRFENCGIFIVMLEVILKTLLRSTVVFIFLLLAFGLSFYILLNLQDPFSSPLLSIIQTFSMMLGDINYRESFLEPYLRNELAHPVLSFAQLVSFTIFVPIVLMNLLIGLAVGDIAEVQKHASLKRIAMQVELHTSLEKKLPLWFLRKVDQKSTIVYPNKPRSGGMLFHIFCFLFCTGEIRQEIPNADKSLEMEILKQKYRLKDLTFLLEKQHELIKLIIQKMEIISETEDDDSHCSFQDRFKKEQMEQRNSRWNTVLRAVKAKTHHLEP
Experiment: Agonist activity at human TRPA1 expressed in tetracycline-inducible T-REx expression system transfected CHO cells assessed as increase in Ca2+ influx measured for 2 mins by Fluo-4 dye based FLIPR assay
Type: cell-based
Recorded metric: EC50

## Task Requested field: EC50. Item: `Cc1cccc2c(=O)n(CC(=O)NCCc3ccc(OC(F)F)cc3)cnc12`
## Result > 25 µM

---

Target: Transient receptor potential cation channel subfamily A member 1 (Rattus norvegicus)
Assay: Agonist activity at rat TRPA1 expressed in tetracycline-inducible T-REx expression system transfected CHO cells assessed as increase in Ca2+ influx measured for 2 mins by Fluo-4 dye based FLIPR assay
Assay type: cell-based
Recorded metric: EC50

## Task Requested field: EC50. Item: `Cc1cccc2c(=O)n(CC(=O)NCCc3ccc(OC(F)F)cc3)cnc12`
## Result > 25 µM

---

Test: Apparent intrinsic clearance in rat liver microsomes
Format: ADME
Details: read-out: CLH(app)
Recorded metric: microsomal CLint (µL/min/mg)

>  <Compound>
O=C(Cn1cnc2ncccc2c1=O)NCCc1ccc(Cl)cc1

>  <Recorded metric>
microsomal CLint

>  <Result>
18

$$$$
>  <Compound>
O=C(Cn1cnc2c(F)cccc2c1=O)NCCc1ccc(Cl)cc1

>  <Recorded metric>
microsomal CLint

>  <Result>
186

$$$$
>  <Compound>
O=c1c2cccnc2ncn1Cc1noc(CCc2ccc(Cl)cc2)n1

>  <Recorded metric>
microsomal CLint

>  <Result>
122

$$$$
>  <Compound>
N#Cc1cccc2c(=O)n(CC(=O)NCCc3ccc(Cl)cc3)cnc12

>  <Recorded metric>
microsomal CLint

>  <Result>
297

$$$$
>  <Compound>
O=c1c2cccnc2ncn1Cc1nc(CC(F)c2ccc(Cl)cc2)no1 (racemic)

>  <Recorded metric>
microsomal CLint

>  <Result>
94

$$$$
>  <Compound>
Cc1ccc2c(=O)n(CC(=O)NCCc3ccc(Cl)cc3)cnc2c1

>  <Recorded metric>
microsomal CLint

>  <Result>
829

$$$$

(1) Cn1cnc2ncn(Cc3noc(CCc4ccc(Cl)cc4)n3)c(=O)c21
(2) O=C(Cn1cnc2ccccc2c1=O)NCCc1ccc(Cl)cc1
(3) O=C(Cn1cnc2cnccc2c1=O)NCCc1ccc(Cl)cc1
## Task List from greatest to least microsomal CLint. A complete answer lists every label in the requested sequence.
## Result 3, 2, 1

---

Assay: Volume of distribution at steady state in rat at 0.5 mg/kg, iv as single dose
Type: ADME, organism-based
Settings: in vivo, read-out: Vdss
Recorded metric: Vd (L/kg)

Some entries whose results are on file:
>  <Compound structure>
C/C(=C\c1nc(Cn2cnc3ncccc3c2=O)no1)c1ccc(Cl)cc1

>  <Vd, L/kg>
1.4

$$$$
>  <Compound structure>
Cn1cnc2ncn(Cc3nc(CCc4ccc(Cl)cc4)no3)c(=O)c21

>  <Vd, L/kg>
1.7

$$$$

(a) O=c1c2cccnc2ncn1Cc1nc(CCc2ccc(Cl)cc2)no1
(b) O=c1c2cccnc2ncn1Cc1noc(CCc2ccc(Cl)cc2)n1
## Task Just tell me: smaller Vd value, a or b ? Write down the label attached to your selection.
## Result b

---

Experiment: Solubility of compound in pH 7.4 phosphate buffered saline
Format: physicochemical
Recorded metric: solubility (µM)
Output spec: scalar in µM, unitless text.

## Task Requested field: solubility. Item: `Cn1cnc2ncn(Cc3nc(CCc4ccc(Cl)cc4)no3)c(=O)c21`
## Result 226

---

Target: Transient receptor potential cation channel subfamily A member 1 (Homo sapiens, UniProt O75762)
Experiment: Agonist activity at human TRPA1 expressed in tetracycline-inducible T-REx expression system transfected CHO cells by 45Ca2+ uptake assay
Assay type: cell-based
The following molecules are listed with their measured EC50 values.

>  <Compound structure>
Cc1cccc2c(=O)n(CC(=O)NCCc3ccc(OC(F)F)cc3)cnc12

>  <EC50>
> 47 µM

$$$$
>  <Compound structure>
Cn1cnc2ncn(Cc3nc(CCc4ccc(Cl)cc4)no3)c(=O)c21

>  <EC50>
> 40 µM

$$$$
>  <Compound structure>
O=c1c2cccnc2ncn1Cc1noc(CCc2ccc(Cl)cc2)n1

>  <EC50>
> 40 µM

$$$$

## Task Requested field: EC50. Item: `C/C(=C\c1noc(Cn2cnc3ncn(C)c3c2=O)n1)c1ccc(Cl)cc1`
## Result > 40 µM

## Task Requested field: EC50. Item: `O=c1c2cccnc2ncn1Cc1nc(CCc2ccc(Cl)cc2)no1`
## Result > 40 µM

---

Tested on: MDR1 (human)
Test: Efflux ratio of apparent permeability from basolateral to apical side over apical to basolateral side in MDCK cells expressing human MDR1 after 120 mins by LC-MS/MS analysis
Assay type: ADME, cell-based, Canis lupus familiaris
Conditions: dog
Recorded metric: efflux ratio at 2 h
API note: the answer field is a bare number with no unit suffix.

## Task Requested field: efflux ratio at 2 h. Item: `Cn1cnc2ncn(Cc3nc(CCc4ccc(Cl)cc4)no3)c(=O)c21`
## Result 1.3

---

Target: Transient receptor potential cation channel subfamily V member 3 (Rattus norvegicus)
Experiment: Antagonist activity at rat TRPV3 expressed in tetracycline-inducible T-REx expression system transfected CHO cells assessed as inhibition of […]-induced Ca2+ influx preincubated for 1 min followed by […] addition measured for 1 min by luminescence assay
Recorded metric: IC50

## Task Requested field: IC50. Item: `Cc1cccc2c(=O)n(CC(=O)NCCc3ccc(OC(F)F)cc3)cnc12`
## Result > 20 µM

---

Target: Transient receptor potential cation channel subfamily A member 1 (Rattus norvegicus, UniProt Q6RI86)
Sequence (Q6RI86 whole entry): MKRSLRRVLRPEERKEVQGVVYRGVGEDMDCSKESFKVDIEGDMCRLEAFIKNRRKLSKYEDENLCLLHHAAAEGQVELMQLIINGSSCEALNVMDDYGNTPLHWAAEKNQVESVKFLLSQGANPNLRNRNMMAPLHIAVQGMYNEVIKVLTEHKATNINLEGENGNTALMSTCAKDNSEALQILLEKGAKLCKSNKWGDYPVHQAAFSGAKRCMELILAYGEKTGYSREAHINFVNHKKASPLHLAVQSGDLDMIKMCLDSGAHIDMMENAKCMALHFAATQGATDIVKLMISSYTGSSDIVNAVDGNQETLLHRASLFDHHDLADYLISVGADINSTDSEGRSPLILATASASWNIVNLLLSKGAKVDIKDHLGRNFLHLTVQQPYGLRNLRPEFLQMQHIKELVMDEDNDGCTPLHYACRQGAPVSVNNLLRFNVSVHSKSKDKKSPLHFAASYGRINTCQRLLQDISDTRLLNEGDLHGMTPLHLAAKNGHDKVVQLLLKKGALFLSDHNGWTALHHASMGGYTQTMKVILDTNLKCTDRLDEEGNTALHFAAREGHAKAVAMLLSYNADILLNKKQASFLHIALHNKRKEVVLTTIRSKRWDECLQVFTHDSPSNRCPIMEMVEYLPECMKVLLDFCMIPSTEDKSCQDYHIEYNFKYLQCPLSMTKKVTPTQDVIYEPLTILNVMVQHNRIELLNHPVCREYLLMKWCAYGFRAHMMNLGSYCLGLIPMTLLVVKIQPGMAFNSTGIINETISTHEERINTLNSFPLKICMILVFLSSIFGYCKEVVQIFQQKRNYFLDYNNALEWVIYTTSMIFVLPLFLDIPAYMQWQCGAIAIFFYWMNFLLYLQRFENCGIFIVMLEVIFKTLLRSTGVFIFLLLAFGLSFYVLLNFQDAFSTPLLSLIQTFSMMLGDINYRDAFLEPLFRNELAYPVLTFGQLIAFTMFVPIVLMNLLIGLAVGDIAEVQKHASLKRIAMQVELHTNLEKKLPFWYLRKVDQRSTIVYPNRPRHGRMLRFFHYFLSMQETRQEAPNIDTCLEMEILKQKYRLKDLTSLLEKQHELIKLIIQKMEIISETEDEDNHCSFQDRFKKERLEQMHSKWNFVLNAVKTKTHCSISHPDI
Assay: Antagonist activity at rat TRPA1 expressed in tetracycline-inducible T-REx expression system transfected CHO cells assessed as inhibition of AITC-induced 45Ca2+ uptake preincubated for 1 min followed by AITC addition measured after 12 mins
Type: cell-based
Recorded metric: IC50 (nM)

>  <Compound structure>
C/C(=C\c1noc(Cn2cnc3ncn(C)c3c2=O)n1)c1ccc(Cl)cc1

>  <Result>
55

$$$$
>  <Compound structure>
Cc1cccc2c(=O)n(CC(=O)NCCc3ccc(OC(F)F)cc3)cnc12

>  <Result>
2620

$$$$
>  <Compound structure>
O=c1c2cccnc2ncn1Cc1nc(CCc2ccc(Cl)cc2)no1

>  <Result>
120

$$$$

(I) O=c1c2cccnc2ncn1Cc1noc(CCc2ccc(Cl)cc2)n1
(II) Cn1cnc2ncn(Cc3nc(CCc4ccc(Cl)cc4)no3)c(=O)c21
## Task Select the item with the higher value of IC50 from the options I and II listed. Write down the label attached to your selection.
## Result I
(I: 411 nM, II: 71 nM)

---

Assay: Half life in rat at 0.5 mg/kg, iv administered as single dose
Format: ADME, organism-based
Conditions: in vivo
Recorded metric: half-life (min)

Some entries whose results are on file:
>  <Compound structure>
O=c1c2cccnc2ncn1Cc1noc(CCc2ccc(Cl)cc2)n1

>  <Unit of measure>
min

>  <Result>
24

$$$$
>  <Compound structure>
C/C(=C\c1nc(Cn2cnc3ncccc3c2=O)no1)c1ccc(Cl)cc1

>  <Unit of measure>
min

>  <Result>
252

$$$$

(P) O=c1c2cccnc2ncn1Cc1nc(CCc2ccc(Cl)cc2)no1
(Q) Cn1cnc2ncn(Cc3nc(CCc4ccc(Cl)cc4)no3)c(=O)c21
## Task Just tell me: smaller half-life value, P or Q ? Write down the label attached to your selection.
## Result P
(P: 18 min, Q: 36 min)

Reference source: ChEMBL document CHEMBL3784976
